Molecular target: RARβ (Homo sapiens)
Sequence (P10826 1-448 isoform P10826-2): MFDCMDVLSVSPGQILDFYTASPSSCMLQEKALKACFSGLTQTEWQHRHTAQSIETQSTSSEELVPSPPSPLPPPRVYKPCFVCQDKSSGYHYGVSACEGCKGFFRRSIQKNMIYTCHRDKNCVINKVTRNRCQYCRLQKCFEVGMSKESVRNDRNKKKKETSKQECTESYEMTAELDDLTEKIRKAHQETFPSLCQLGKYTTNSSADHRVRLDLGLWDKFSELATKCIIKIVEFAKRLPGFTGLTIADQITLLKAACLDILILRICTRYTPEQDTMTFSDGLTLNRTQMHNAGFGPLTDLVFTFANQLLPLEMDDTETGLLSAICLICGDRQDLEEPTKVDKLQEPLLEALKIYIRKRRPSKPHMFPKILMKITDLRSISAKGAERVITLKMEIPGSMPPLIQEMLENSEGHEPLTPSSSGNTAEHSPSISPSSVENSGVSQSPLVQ
Reported metric: pKd
Interpret pKd as the negative base-10 log of the concentration measured in mol/L.

Ask: Item: `Cc1ccc(N2CCC(C)(C)c3ccc(/C=C/c4ccc(C(=O)O)cc4)cc32)cc1` Test system: RARβ (Homo sapiens) Read-out: pKd Value: ?
Result: 8.30

---

Molecular target: UniProt:P13631
Sequence (P13631 1-454): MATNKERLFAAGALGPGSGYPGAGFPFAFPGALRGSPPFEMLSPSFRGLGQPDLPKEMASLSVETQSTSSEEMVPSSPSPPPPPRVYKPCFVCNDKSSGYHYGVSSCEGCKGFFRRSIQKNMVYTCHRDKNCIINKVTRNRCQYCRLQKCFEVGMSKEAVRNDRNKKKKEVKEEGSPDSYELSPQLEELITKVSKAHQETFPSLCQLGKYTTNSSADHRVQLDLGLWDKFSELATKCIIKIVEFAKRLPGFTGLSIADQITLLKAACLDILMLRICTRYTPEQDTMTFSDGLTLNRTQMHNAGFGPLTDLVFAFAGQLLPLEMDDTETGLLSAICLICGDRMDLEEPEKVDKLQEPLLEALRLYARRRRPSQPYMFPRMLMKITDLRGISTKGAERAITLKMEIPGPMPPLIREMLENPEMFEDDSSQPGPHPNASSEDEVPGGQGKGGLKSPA
Reported metric: Kd
Answer with the number, then the unit.

Ask: Returns the measured Kd for the input molecule. Input: `Cc1ccc(N2CCC(C)(C)c3ccc(C#Cc4ccc(C(=O)O)cc4)cc32)cc1`
Result: 9 nM

Ask: I would be grateful if you could share the reported Kd for `Cc1ccc(N2C(=O)CC(C)(C)c3ccc(C#Cc4ccc(C(=O)O)cc4)cc32)cc1` .
Result: 32 nM

Ask: Which value of Kd has been reported for `Cc1ccc(N2CCC(C)(C)c3ccc(C#Cc4ccc(C(=O)O)c(F)c4)cc32)cc1` in the records?
Result: 530 nM

Ask: Reported Kd, molecule `Cc1ccc(N2CCC(C)(C)c3ccc(/C=C/c4ccc(C(=O)O)cc4)cc32)cc1` : ____
Result: 15 nM

Ask: # input molecule: `CC1(C)CCN(c2ccccc2)c2cc(C#Cc3ccc(C(=O)O)cc3)ccc21` ; wanted: its Kd
Result: 52 nM
